Below is a list of entries, each paired with its recorded GI50 value.
System: RXF 393
assayProtocol: NCI tumour cell line growth inhibition, 48 h
Calls of active or inactive are those of the source. Cut-off read from the data, not from the text of the source: active = GI50 up to about 1.1 µM and inactive = higher.

- compound: "NC1(c2cc3ccccc3s2)CCCCCC1"
  experimentalResult: "12.7 µM (inactive)"
- compound: "CCOP(=O)(/C=C\\n1cc(C)c(=O)[nH]c1=O)OCC"
  experimentalResult: "> 100 µM (inactive)"

Recorded GI50 for O=C1CC(C(OCc2ccccc2)C(OCc2ccccc2)C(OCc2ccccc2)C(COCc2ccccc2)OCc2ccccc2)CC(=O)N1 (configuration not stated) , please?
6.52 µM (inactive)

Recorded GI50 for C[Si](C)(C)C#Cc1cc(-c2nc3ccccc3s2)ccc1N , please?
17.5 µM (inactive)

Recorded GI50 for O=C(O)C1Cc2ccccc2OC1=O (configuration not stated) , please?
> 100 µM (inactive)

Recorded GI50 for CN(C)CCNC(=O)c1cccc2[nH]c(-c3ccccc3)nc12 , please?
17.2 µM (inactive)

Recorded GI50 for COc1cc(C=O)cc(/C=N/c2ccccn2)c1O , please?
1.56 µM (inactive)
